# target.or.system: α3β3γ2 GABAA/BzR (Homo sapiens, UniProt P18507+P34903)
# protocol.text: Competition binding to HEK cell membranes, α3β3γ2
# Parameters: expressed in transfected cells
# condition.notes: read-out: Ki α3
pKi: −log10 of the molar value.
Assign fulfilled whenever pKi does not fall below 8; assign not fulfilled whenever it does.

C#Cc1ccc2c(c1)C(c1ccccc1F)=NCc1c(C(=O)NC)ncn1-2    not fulfilled
O=C(OC(C(F)(F)F)C(F)(F)F)c1ncn2c1C1CCCN1C(=O)c1ccccc1-2 (stereo not drawn) [MMB-III-018]    not fulfilled
O=C(OCC(F)(F)F)c1cc2c(cn1)[nH]c1ccccc12    not fulfilled
Cc1nnc2n1-c1ccc(Br)cc1C(c1ccccc1Cl)=NC2 [DM-II-90]    fulfilled
CCc1c(C(=O)OC)ncc2[nH]c3cc(OC)c(OC)cc3c12 [DMCM, reference compound]    fulfilled
C#Cc1ccc2c(c1)C(c1ccccc1F)=NCC(=O)N2C    fulfilled
CC(C)(C)OC(=O)c1ncn2c1[C@@H]1CCCN1C(=O)c1cc(-c3ccco3)ccc1-2    not fulfilled
CN1Cc2c(C(=O)OC(C)(C)C)ncn2-c2ccc(O)cc2C1=O    fulfilled
COc1ccc2c(c1)C(=O)N1CCC1c1c(C(=O)OC(C)(C)C)ncn1-2 (stereo not drawn)    not fulfilled
CCC(OC(=O)c1ncn2c1C1CCCN1C(=O)c1cc(Br)ccc1-2)C(F)(F)F (stereo not drawn) [MMB-II-87]    not fulfilled
CCCC(=O)c1cc2c(cn1)[nH]c1ccccc12    not fulfilled
Oc1ccc2c(c1)[nH]c1c2ncc2[nH]c3ccccc3c21    not fulfilled
C[Si](C)(C)C#Cc1ccc2c(c1)C(c1ccccc1F)=NCC(=O)N2    fulfilled
CCC(OC(=O)c1ncn2c1C1CCCN1C(=O)c1cc(Cl)ccc1-2)C(F)(F)F (mixture of isomers)    not fulfilled
